Molecular target: α2,3(O)-sialyltransferase ST3GALI (Rattus norvegicus)
Construct: purchased Calbiochem
Sequence (Q6H8N0 1-340): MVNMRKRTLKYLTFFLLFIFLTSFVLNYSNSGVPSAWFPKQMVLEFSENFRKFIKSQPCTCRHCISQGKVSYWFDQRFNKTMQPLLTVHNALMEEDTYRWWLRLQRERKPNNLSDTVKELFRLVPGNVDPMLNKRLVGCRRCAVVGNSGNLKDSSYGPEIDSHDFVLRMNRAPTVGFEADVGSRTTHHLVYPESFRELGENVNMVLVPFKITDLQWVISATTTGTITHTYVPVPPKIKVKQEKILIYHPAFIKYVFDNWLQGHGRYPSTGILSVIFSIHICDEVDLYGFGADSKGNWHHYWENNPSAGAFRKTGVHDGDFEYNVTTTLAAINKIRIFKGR
Test: Sialyltransferase inhibition assay, ST3GALI (reverse-phase HPLC)
Type: biochemical
Conditions: measured at 500 μM; read-out: ST3GALI inhibition percentage
Items are presented alongside their recorded inhibition at 500 µM.
assay.metric: inhibition at 500 µM (%)

# compound, assay.metric, test.result
records = [
    ("C[C@H](CCC(=O)OCCOCCN=[N+]=[N-])C1CC[C@H]2[C@@H]3CC[C@@H]4C[C@H](OC(=O)[C@H](CC(=O)O)NC(=O)c5ccc([N+](=O)[O-])cc5)CC[C@]4(C)[C@H]3CC[C@]12C (stereo partly shown) [Compound 7]", "inhibition at 500 µM", 0),
    ("C[C@H](CCC(=O)OCCN=[N+]=[N-])C1CC[C@H]2[C@@H]3CC[C@@H]4C[C@H](OC(=O)[C@H](CC(=O)O)Nc5ccc([N+](=O)[O-])c6nonc56)CC[C@]4(C)[C@H]3CC[C@]12C (stereo partly shown) [Compound 1]", "inhibition at 500 µM", 0),
    ("C[C@H](CCC(=O)OCCOCCOCCOCCN=[N+]=[N-])C1CC[C@H]2[C@@H]3CC[C@@H]4C[C@H](OC(=O)[C@H](CC(=O)O)NC(=O)c5ccc([N+](=O)[O-])cc5)CC[C@]4(C)[C@H]3CC[C@]12C (stereo partly shown) [Compound 9]", "inhibition at 500 µM", 0),
    ("C[C@H](CCC(=O)OCCN=[N+]=[N-])C1CC[C@H]2[C@@H]3CC[C@@H]4C[C@H](OC(=O)[C@H](CC(=O)O)NC(=O)c5ccc([N+](=O)[O-])cc5)CC[C@]4(C)[C@H]3CC[C@]12C (stereo partly shown) [Compound 6]", "inhibition at 500 µM", 0),
]

The measurements presented in this section are drawn from patent US10889611B2.
